TARGET: T1, soluble KIR3DL1*001-Fc (human, UniProt P43629 22-340)
T1 construct: also called KIR3DL1 allele 001; KIR3DL1 allele-001 antigen; not shown: Fc domain
METHOD SUMMARY: SPR (BIACORE T-100)
pKd: −log10 of the molar value.
RECORDED METRIC: pKd

BINDER | ENDPOINT VALUE
ET160-72 (antibody, human IgG1, V domains shown, Tested as human IgG1 (hIgG1), lambda light chain) VH: QVQLVQSGGGVVRSGGSLRLTCAASGFTFGDYGMSWVRQAPGKGLEWVSGINWNGGGTGYADSVKGRFTISRDNAKDSLYLQMNSLRAEDTALYYCARVWGCGSTTCYEGADDAFDIWGQGTMVTVSS VL: LPVLTQPPSISGAPRQRVTISCSGARSNIGNNAVNWYQQVPGEAPKLLIFYDDQQPSGISGRFSGSKSGTSASLAISGLQSEDEADYYCAAWDDSLNGWVFGGGTKLTVLG | 6.74
ET160-73 (antibody, human IgG1, V domains shown, Tested as human IgG1 (hIgG1), kappa light chain) VH: QVQLVQSGAEVKKPGESLKISCKGSGYSFTSYWIGWVRQMPGKGLEWMGIIYPGDSDTRYSPSFQGQVTISADKSISTAYLQWSSLKASDTAMYYCARGREQLWLDGMDVWGQGTTVTVSS VL: DVVMTQSPLSLPVTLGQPASISCRSTQSLVHSDGNTYLNWFQQRPGQSPRRLIYGVSNRDFGVPDRFSASGSGTDFTLKINRVEAEDVGVYYCMQGTHWPLTFGQGTKVEIKR | 6.87
ET160-61 (antibody, human IgG1, V domains shown, Tested as human IgG1 (hIgG1), lambda light chain) VH: QVQLVESGGGLVQPGRSLRLSCAASGFTFDDYAMHWVRQAPGKGLEWVSGISWNSGSIGYADSVKGRFTISRDNAKNSLYLQMNSLRAEDTAVYYCASSLRYFEWPIDYWGQGTLVTVSS VL: NFMLTQPLSVSESPGKTVTISCTANGGSLASKYVQWFQQRPGSSPTTVIYDDNLRPSGVPDRFSGSIDTSSNSAALTISGLKTEDEADYYCQSYDNSSVVFGGGTKLTVLG | 7.34
ET160-77 (antibody, human IgG1, V domains shown, Tested as human IgG1 (hIgG1), lambda light chain) VH: EVQLVETGGGLVKPGGSLRLSCAASGFTFSDYYMSWIRQAPGKGLEWVSYISSSSSYTNYADSVKGRFTISRDNAKNSLYLQMNSLRAEDTAVYYCAREGIAAADAFDIWGQGTMVTVSS VL: SYELTQPPSVSVAPGQAATITCAGDNIESKSVNWYQQKPGQAPVLVVYDDTVRPSGIPERFSGSNSGNPATLTISRSEAGDEADYYCQVWDNRRDHVVFGGGTKVTVLG | 7.27
